- target or test system: COX II (Homo sapiens, UniProt P35354)
- Construct: made in house; baculovirus-infected insect cells by own knowledge of the cited Barnett et al. 1994
- Sequence (P35354 18-604): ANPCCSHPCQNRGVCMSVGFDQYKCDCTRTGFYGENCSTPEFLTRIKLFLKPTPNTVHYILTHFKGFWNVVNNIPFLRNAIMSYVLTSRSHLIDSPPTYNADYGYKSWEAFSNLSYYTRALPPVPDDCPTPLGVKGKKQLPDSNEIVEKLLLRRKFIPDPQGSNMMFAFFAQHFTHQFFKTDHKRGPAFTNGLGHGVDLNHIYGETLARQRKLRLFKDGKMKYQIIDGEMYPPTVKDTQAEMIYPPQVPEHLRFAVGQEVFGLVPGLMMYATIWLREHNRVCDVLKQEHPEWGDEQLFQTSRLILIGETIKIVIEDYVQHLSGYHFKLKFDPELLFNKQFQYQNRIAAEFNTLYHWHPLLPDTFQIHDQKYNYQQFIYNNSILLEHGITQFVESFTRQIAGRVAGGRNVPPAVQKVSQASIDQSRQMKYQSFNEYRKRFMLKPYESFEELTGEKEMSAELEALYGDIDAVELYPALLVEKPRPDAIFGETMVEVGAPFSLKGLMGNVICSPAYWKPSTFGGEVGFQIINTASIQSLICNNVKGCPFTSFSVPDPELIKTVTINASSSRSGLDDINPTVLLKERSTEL
- method: Inhibition of COX II in vitro (radiometric assay, 14C arachidonic acid, partially purified enzyme)
- Format: biochemical
- condition: partially purified COX II, 20 micromolar arachidonic acid, 10 min preincubation, room temperature; read-out: COX II IC50
outcome measure: log10 IC50 (log10 of the value in nM)
// units: nM (pre-log); metric: IC50; scale: log10

[[record]]
molecule = "CSc1ccc(C(=O)c2c(C)cc(Cc3ccc(N)cc3F)n2C)cc1 [compound 251]"
number = 2.81

[[record]]
molecule = "Cc1cc(Cc2ccc(N)cn2)n(C)c1C(=O)c1ccc(Cl)cc1 [compound 333]"
number = 4.89

[[record]]
molecule = "Cc1cc(Cc2ccc(NS(=O)(=O)N(C)C)cn2)n(C)c1C(=O)c1ccccc1 [compound 294]"
number = 3.41

[[record]]
molecule = "Cc1ccc(C(=O)c2c(C)cc(Cc3ccc(NS(C)(=O)=O)cc3F)n2C)cc1 [compound 38]"
number = 1.81

[[record]]
molecule = "COc1ccc(C(=O)c2ccc3n2CCC3c2ccc(NS(=O)(=O)CCO)cc2Cl)cc1 (centres unmarked) [compound 133]"
number = 1.76

[[record]]
molecule = "Cc1cc(Cc2ccc(NS(C)(=O)=O)cn2)n(C)c1C(=O)c1ccc(Cl)cc1 [compound 263]"
number = 2.65

[[record]]
molecule = "COc1ccc(C(=O)c2ccc3n2CCC3c2ccc(NS(N)(=O)=O)cc2Cl)cc1 (centres unmarked) [compound 223]"
number = 1.46

[[record]]
molecule = "Cc1cc(Cc2ccc(NS(C)(=O)=O)cc2)n(C)c1C(=O)c1ccc(Cl)cc1 [compound 1]"
number = 2.18

[[record]]
molecule = "COc1ccc(C(=O)c2ccc(Cc3ccc(NS(N)(=O)=O)cc3F)n2C)cc1 [compound 196]"
number = 1.60

[[record]]
molecule = "Cc1cc(Cc2ccc(NC(=O)N(C)C)cn2)n(C)c1C(=O)c1ccc(Cl)cc1 [compound 308]"
number = 3.94


Data request: Looking for the measured log10 IC50 of COc1ccc(C(=O)c2ccc(Cc3ccc(NS(C)(=O)=O)cn3)n2C)cc1 [compound 288] , can you help?
Data returned: 2.74

Data request: Looking for the measured log10 IC50 of CCS(=O)(=O)Nc1ccc(Cc2cc(C)c(C(=O)c3ccccc3)n2C)c(F)c1 [compound 68] , can you help?
Data returned: 1.86

Data request: Looking for the measured log10 IC50 of Cc1cc(Cc2ccc(NC(=O)Nc3ccccc3)cc2)n(C)c1C(=O)c1ccc(Cl)cc1 [compound 227] , can you help?
Data returned: 2.00

Data request: Looking for the measured log10 IC50 of COc1ccccc1C(=O)c1ccc(Cc2ccc(NS(C)(=O)=O)cc2F)n1C [compound 72] , can you help?
Data returned: 2.85

Data request: Looking for the measured log10 IC50 of Cc1ccc(C(=O)c2ccc(Cc3ccc(NS(N)(=O)=O)cc3F)n2C)c(C)c1 [compound 165] , can you help?
Data returned: 1.98

Data request: Looking for the measured log10 IC50 of COc1ccc(C(=O)c2ccc(Cc3ccc(NS(N)(=O)=O)cn3)n2C)cc1 [compound 306] , can you help?
Data returned: 2.81

Data request: Looking for the measured log10 IC50 of Cc1ccccc1C(=O)c1ccc(Cc2ccc(NS(C)(=O)=O)cc2F)n1C [compound 71] , can you help?
Data returned: 2.20

###

- target or test system: COX I (Homo sapiens, UniProt P23219)
- Construct: made in house; baculovirus-infected insect cells by own knowledge of the cited Barnett et al. 1994
- Sequence (P23219 24-599): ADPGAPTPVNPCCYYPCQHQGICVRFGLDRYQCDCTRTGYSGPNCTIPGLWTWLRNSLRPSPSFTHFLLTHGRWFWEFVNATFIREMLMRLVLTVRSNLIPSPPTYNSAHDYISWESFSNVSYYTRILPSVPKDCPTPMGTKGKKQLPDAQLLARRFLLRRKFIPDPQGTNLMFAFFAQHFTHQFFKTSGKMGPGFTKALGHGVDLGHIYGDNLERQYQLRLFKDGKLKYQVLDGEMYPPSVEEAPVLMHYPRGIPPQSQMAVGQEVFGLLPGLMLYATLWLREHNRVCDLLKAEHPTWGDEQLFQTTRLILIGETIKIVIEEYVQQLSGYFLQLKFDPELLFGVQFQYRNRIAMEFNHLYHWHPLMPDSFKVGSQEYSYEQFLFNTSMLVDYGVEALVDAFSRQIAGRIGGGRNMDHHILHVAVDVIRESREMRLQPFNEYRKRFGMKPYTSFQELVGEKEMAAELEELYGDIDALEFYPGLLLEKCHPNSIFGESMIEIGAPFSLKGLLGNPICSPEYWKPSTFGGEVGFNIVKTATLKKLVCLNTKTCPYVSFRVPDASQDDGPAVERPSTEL
- method: Inhibition of COX I in vitro (radiometric assay, 14C arachidonic acid, partially purified enzyme)
- Type: biochemical
- condition: partially purified COX I, 20 micromolar arachidonic acid, 10 min preincubation, room temperature; read-out: COX I IC50
outcome measure: IC50 (µM)
// return numeric value only (unit: µM, not printed)

[[record]]
compound = "Cn1c(Cc2ccc(NS(=O)(=O)CCO)cc2F)ccc1C(=O)c1ccccc1"
target_or_test_system = "COX I (Homo sapiens, UniProt P23219)"
reading_unit = "µM"
number = 6.9

[[record]]
compound = "CC(=O)Nc1ccc(Cc2cc(C)c(C(=O)c3ccc(Cl)cc3)n2C)nc1"
target_or_test_system = "COX I (Homo sapiens, UniProt P23219)"
reading_unit = "µM"
number = 256

[[record]]
compound = "Cc1ccc(C(=O)c2ccc(Cc3ccc(NS(=O)(=O)CCO)cc3F)n2C)c(C)c1"
target_or_test_system = "COX I (Homo sapiens, UniProt P23219)"
reading_unit = "µM"
number = 61

[[record]]
compound = "Cc1cc(Cc2ccc(NS(C)(=O)=O)cc2C#N)n(C)c1C(=O)c1ccc(Cl)cc1"
target_or_test_system = "COX I (Homo sapiens, UniProt P23219)"
reading_unit = "µM"
number = 0.76

[[record]]
compound = "CSc1ccc(C(=O)c2c(C)cc(Cc3ccc(N)cn3)n2C)cc1"
target_or_test_system = "COX I (Homo sapiens, UniProt P23219)"
reading_unit = "µM"
number = 18.3


Data request: Looking for the measured IC50 of COc1ccc(C(=O)c2c(C)cc(Cc3ccc(NS(C)(=O)=O)cc3F)n2C)cc1 , can you help?
Data returned: 0.09

Data request: Looking for the measured IC50 of COc1ccc(C(=O)c2ccc3n2CCC3c2ccc(NS(N)(=O)=O)cc2Cl)cc1 (centres unmarked) , can you help?
Data returned: 0.064

Data request: Looking for the measured IC50 of Cc1ccc(C(=O)c2ccc(Cc3ccc(NS(C)(=O)=O)cn3)n2C)cc1 , can you help?
Data returned: 89

###

Reported pIC50 values are given for each entry in this list.
- target or test system: COX II (Homo sapiens, UniProt P35354)
- Construct: made in house; baculovirus-infected insect cells by own knowledge of the cited Barnett et al. 1994
- method: Inhibition of COX II in vitro (radiometric assay, 14C arachidonic acid, partially purified enzyme)
- Type: biochemical
- condition: partially purified COX II, 20 micromolar arachidonic acid, 10 min preincubation, room temperature; read-out: COX II IC50
pIC50 here: minus log base 10 of the concentration, concentration in moles per litre.

[[record]]
molecule = "COc1ccc(C(=O)c2c(C)cc(Cc3ncc(NS(C)(=O)=O)cc3Cl)n2C)cc1 [compound 284]"
number = 6.30


Data request: Looking for the measured pIC50 of Cc1ccc(C(=O)c2ccc(Cc3ccc(NS(N)(=O)=O)cc3F)n2C)cc1 [compound 154] , can you help?
Data returned: 7.27

Data request: Looking for the measured pIC50 of COc1ccc(C(=O)c2ccc(Cc3ccc(NS(N)(=O)=O)cc3C#N)n2C)cc1 [compound 202] , can you help?
Data returned: 7.30

Data request: Looking for the measured pIC50 of Cc1ccc(C(=O)c2ccc(Cc3ccc(NS(C)(=O)=O)cc3)n2C)cc1 [compound 28] , can you help?
Data returned: 6.72

Data request: Looking for the measured pIC50 of Cc1ccc(C(=O)c2ccc(Cc3ccc(NS(=O)(=O)CCO)cc3F)n2C)cc1 [compound 36] , can you help?
Data returned: 7.30

Data request: Looking for the measured pIC50 of Cc1cc(Cc2ccc(NS(N)(=O)=O)cn2)n(C)c1C(=O)c1ccccc1 [compound 295] , can you help?
Data returned: 7.00

Data request: Looking for the measured pIC50 of Cc1cc(Cc2ccc(O)cc2)n(C)c1C(=O)c1ccc(Cl)cc1 [compound 343] , can you help?
Data returned: 6.27

Data request: Looking for the measured pIC50 of Cc1cc(Cc2ccc(NS(N)(=O)=O)cc2F)n(C)c1C(=O)c1ccc(Cl)cc1 [compound 146] , can you help?
Data returned: 7.22

###

- target or test system: COX I (Homo sapiens)
- Construct: made in house; baculovirus-infected insect cells by own knowledge of the cited Barnett et al. 1994
- method: Inhibition of COX I in vitro (radiometric assay, 14C arachidonic acid, partially purified enzyme)
- Format: biochemical
- condition: partially purified COX I, 20 micromolar arachidonic acid, 10 min preincubation, room temperature; read-out: COX I IC50
outcome measure: pIC50
pIC50 here: minus log base 10 of the concentration, concentration in moles per litre.

Solved cases (3 shown):
[[record]]
substance_smiles = "Cc1cc(Cc2ccc(NC(=O)Nc3cccc(Cl)c3)cc2)n(C)c1C(=O)c1ccc(Cl)cc1"
number = 5.07

[[record]]
substance_smiles = "Cc1ccc(C(=O)c2ccc(Cc3ccc(NS(N)(=O)=O)cc3F)n2C)c(C)c1"
number = 4.77

[[record]]
substance_smiles = "Cc1cc(Cc2c(F)cc(NS(C)(=O)=O)cc2F)n(C)c1C(=O)c1ccc(Cl)cc1"
number = 3.38


Data request: Looking for the measured pIC50 of Cc1cc(Cc2ccc(NS(N)(=O)=O)cc2F)n(C)c1C(=O)c1ccc(Cl)cc1 , can you help?
Data returned: 5.54

These measurements were taken from patent US5952368A.
